We begin with a simple list: items and their reported Kd.
# experimental_target: T1, recombinant human CFD mutant 1 (R157A, R207A), His-tagged (human, UniProt P00746 26-253)
# T1 construct: positions are linear positions in the mature protein; also called rhCFD-mut1-His; Mut1
# T1 sequence (P00746 26-253 R182A/R232A limits assumed): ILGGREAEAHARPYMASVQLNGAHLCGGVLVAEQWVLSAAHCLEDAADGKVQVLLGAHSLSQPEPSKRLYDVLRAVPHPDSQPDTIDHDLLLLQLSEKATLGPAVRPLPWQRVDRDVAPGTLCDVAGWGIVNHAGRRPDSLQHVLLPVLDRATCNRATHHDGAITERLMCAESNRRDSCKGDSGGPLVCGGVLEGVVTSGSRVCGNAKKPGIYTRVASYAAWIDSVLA
# assay_protocol: SPR MX96
assay_endpoint: Kd (nM)

binder: KCD210 (antibody, V domains shown) VH: EVQLQQSGPVLVKPGASVTMSCKASGYTFTEYYMNWVKQSHGKSLDWIGVINPYSGGTSYKQKFKDKATLTVDKSSSTAYMELNGLTSEDSAVYFCVRGGLRRNYFDYWGQGTTLTVSS VL: EIVLTQSPALMTASPGEKVTITCSVSSSISSTNLHWYQQKSGTSPKPWIFGTSNLASGVPVRFSGSGSGTSYSLTISNMEAEDAATYYCQQWNSYPFTFGTGTKLEIK
assay_endpoint: Kd
test_value: 2.9
--
binder: KCD075 (antibody, V domains shown) VH: QVQLLQPGAELVRPGTSVKLSCKASGYTFSNYWINWVKQRPGQGLEWIGNIYPSDSSINYNQKFKDKATLTVDKSSTTAYMQLSSPTSEDSAVYYCTGTDWYFDVWGAGTTVTVSS VL: DIQMTQTTSSLSASLGDRVTISCSGGQGISNYLNWYQQKPDGTFKLLIYYTSTLHSGVPSRFSGSGSGTDYSLTISNLEPEDVATYYCQQYSKLPYTFGGGTKLEIK
assay_endpoint: Kd
test_value: 3.4
